Assay: Stability of Src peptide substrate 1 in prostate cell lysates
Assay type: in vitro ADME, human
Conditions: human; PZ-HPV-7 cell lysate, M-PER lysis buffer, no ATP/Mg2+, 1 h; read-out: % Remaining Parent
Procedure: Peptides commonly suffer protease-catalyzed degradation in cells as well as in cell lysates. Consequently, prior to examining Src kinase-catalyzed phosphorylation of peptide 1 with lysates, we monitored the stability of the peptide as a function of time. […] Since the phosphorylation rate is measured within 10 min of incubation (Fig. S1), the peptide is sufficiently stable for our needs. […]
Where a SMILES comes first, the peptide text is derived from it. [ ]: non-standard residue; d: D form. The star is where a group is joined. 5FAM = O=C1OC2(c3ccc(O)cc3Oc3cc(O)ccc32)c2ccc(C(=O)*)cc21; Orn = NCCC[C@H](N)C(=O)O
MEASURE NAME: remaining at 1 h (%)
Reply with just the number (in %).

Q) Data request, read-out remaining at 1 h, for CC[C@H](C)[C@H](NC(=O)[C@H](CCC(=O)O)NC(=O)[C@H](CCC(=O)O)NC(=O)[C@H](CCC(=O)O)NC(=O)[C@H](CCCNC(C)=O)NC(=O)c1ccc2c(c1)C(=O)OC21c2ccc(O)cc2Oc2cc(O)ccc21)C(=O)N[C@@H](Cc1ccc(O)cc1)C(=O)NCC(=O)N[C@@H](CCC(=O)O)C(=O)N[C@@H](Cc1ccccc1)C(=O)N[C@@H](CCCNC(C)=O)C(N)=O [peptide 1] (5FAM-[Orn](Ac)EEEIYGEF[Orn](Ac)-NH2)
A) 92.4
